The measurements presented in this section are drawn from patent US20230278972A1.

# Test system: wheat (Triticum aestivum)
# METHOD: Test A1 preemergence, wheat
# Type: in vivo
# CONDITIONS_USED: 125 g ai/ha, 0 to 100 scale, 0 no effect, 100 complete control
TEST_READOUT: Plant response rating, Wheat

                                   molecule                  test_readout  observed_result
0  Cc1cc(C)c(N2CC3(CCCCC3)CC2=O)cc1NS(=O)(=O)C(F)(F)F  Plant response rating, Wheat               50
1  Cc1c(C(=O)N2CCCCC2)cc(N(COC(=O)C(C)(C)C)S(=O)(=O)C(F)(F)F)c(C)c1C  Plant response rating, Wheat                0
2  C#CCN(C)C(=O)c1cc(NS(=O)(=O)C(F)(F)F)c(Cl)c(F)c1C  Plant response rating, Wheat               60
3  Cc1c(NS(=O)(=O)C(F)(F)F)cc(C(=O)N2CCC(C)CC2)c(C)c1C  Plant response rating, Wheat               10
4  Cc1cc(C)c(N(COC(=O)C(C)(C)C)S(=O)(=O)C(F)(F)F)cc1C(=O)N1CCC(F)(F)CC1  Plant response rating, Wheat               10
5  Cc1cc(C)c(N(COC(=O)C(C)(C)C)S(=O)(=O)C(F)(F)F)cc1C1=NOC2CCCCCC12 (single isomer, unassigned)  Plant response rating, Wheat                0
6  Cc1cc(C)c(N(COC(=O)C(C)(C)C)S(=O)(=O)C(F)(F)F)cc1C(=O)N1CCC(c2ccccc2)CC1  Plant response rating, Wheat                0
